Data origin, for the record: PubChem BioAssay AID1918949

Test system: K24384-001-R-PDC complex spheroid viability
Experiment: Anticancer human tumor K24384-001-R-PDC patient-derived pancreatic adenocarcinoma cell line growth inhibition
Settings: curve of first compound; second compound 1 µM
observed.property: IC50 (nM)
Numeric answer only, unit nM assumed.

Look up IC50 for this compound: O=C(C=Cn1cnc(-c2cc(C(F)(F)F)cc(C(F)(F)F)c2)n1)NNc1cnccn1 + NC1CC1c1ccc(-c2cccc(O)c2)cc1
22.4

And Nc1ccn(C2OC(CO)C(O)C2(F)F)c(=O)n1 (centres undefined) + NC1CCC(NC2CC2c2ccccc2)CC1 ?
44.5

And COc1cc(C2c3cc4c(cc3C(OC3OC5COC(C)OC5C(O)C3O)C3COC(=O)C23)OCO4)cc(OC)c1O (centres undefined) + NC1CCC(NC2CC2c2ccccc2)CC1 ?
2650

And CC[C@@]1(O)C(=O)OCc2c1cc1n(c2=O)Cc2cc3c(CN(C)C)c(O)ccc3nc2-1 + NC1CCC(NC2CC2c2ccccc2)CC1 ?
88.6

And CC1COCCN1c1cc(C2(S(C)(=N)=O)CC2)nc(-c2ccnc3[nH]ccc23)n1 (centres undefined) + NC1CCC(NC2CC2c2ccccc2)CC1 ?
2320

And Nc1ccccc1NC(=O)c1ccc(CNC(=O)OCc2cccnc2)cc1 + NC1CCC(NC2CC2c2ccccc2)CC1 ?
447

And NS(=O)(=O)OCC1CC(n2ccc3c(NC4CCc5ccccc54)ncnc32)CC1O (centres undefined) + NC1CC1c1ccc(-c2cccc(O)c2)cc1 ?
479

And CC1(C)CCC(CN2CCN(c3ccc(C(=O)NS(=O)(=O)c4ccc(NCC5CCOCC5)c([N+](=O)[O-])c4)c(Oc4cnc5[nH]ccc5c4)c3)CC2)=C(c2ccc(Cl)cc2)C1 + NC1CC1c1ccc(-c2cccc(O)c2)cc1 ?
2680

And NS(=O)(=O)OCC1CC(n2ccc3c(NC4CCc5ccccc54)ncnc32)CC1O (centres undefined) + NC1CCC(NC2CC2c2ccccc2)CC1 ?
412

And COc1ccc([C@@H](O)c2cc(-c3ncnc4cc(N5CCOCC5)ccc34)c(F)cc2Cl)nn1 + NC1CC1c1ccc(-c2cccc(O)c2)cc1 ?
1490

###

Tested on: K24384-001-R-PDC complex spheroid viability
Assay: Anticancer human tumor K24384-001-R-PDC cell line growth inhibition; active = viability on the fitted dose curve at most 10% of control; inactive = the rest;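 further: spheroids exposed to agents for seven days before luminescence viability reading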
Details: second compound 3.16 µM; first compound 0.0316 µM
Your reply should match one of these outcome classes. label 1 (active), label 0 (inactive)

# fetch the recorded call for Nc1ncn(C2CC(O)C(CO)O2)c(=O)n1 (stereo not drawn) + NC1CC1c1ccc(-c2cccc(O)c2)cc1 here
label 0

And Cn1ncnc1C1c2n[nH]c(=O)c3cc(F)cc(c23)NC1c1ccc(F)cc1 (stereo not drawn) + NC1CCC(NC2CC2c2ccccc2)CC1 ?
label 0

And CC(C)CC(NC(=O)CNC(=O)c1cc(Cl)ccc1Cl)B1OC(=O)CC(CC(=O)O)(C(=O)O)O1 (stereo not drawn) + NC1CC1c1ccc(-c2cccc(O)c2)cc1 ?
label 1

And CC1COCCN1c1cc(-c2ccnn2C)c2ccnc(-c3ccn[nH]3)c2n1 (stereo not drawn) + NC1CCC(NC2CC2c2ccccc2)CC1 ?
label 0

And CC1COCCN1c1cc(C2(S(C)(=N)=O)CC2)nc(-c2ccnc3[nH]ccc23)n1 (stereo not drawn) + NC1CCC(NC2CC2c2ccccc2)CC1 ?
label 0

And COc1cc(Nc2ncc3c(n2)-c2ccc(Cl)cc2C(c2c(F)cccc2OC)=NC3)ccc1C(=O)O + NC1CCC(NC2CC2c2ccccc2)CC1 ?
label 0

And CC(C)CC(NC(=O)CNC(=O)c1cc(Cl)ccc1Cl)B1OC(=O)CC(CC(=O)O)(C(=O)O)O1 (stereo not drawn) + NC1CCC(NC2CC2c2ccccc2)CC1 ?
label 1

And Nc1ncn(C2CC(O)C(CO)O2)c(=O)n1 (stereo not drawn) + NC1CCC(NC2CC2c2ccccc2)CC1 ?
label 0

And COc1ccc([C@@H](O)c2cc(-c3ncnc4cc(N5CCOCC5)ccc34)c(F)cc2Cl)nn1 + NC1CCC(NC2CC2c2ccccc2)CC1 ?
label 0

And O=C(C=Cn1cnc(-c2cc(C(F)(F)F)cc(C(F)(F)F)c2)n1)NNc1cnccn1 + NC1CCC(NC2CC2c2ccccc2)CC1 ?
label 0

And O=C(c1cc(Cc2n[nH]c(=O)c3ccccc23)ccc1F)N1CCN(C(=O)C2CC2)CC1 + NC1CC1c1ccc(-c2cccc(O)c2)cc1 ?
label 0

And COc1cc(Nc2ncc3c(n2)-c2ccc(Cl)cc2C(c2c(F)cccc2OC)=NC3)ccc1C(=O)O + NC1CC1c1ccc(-c2cccc(O)c2)cc1 ?
label 0

And CC[C@@]1(O)C(=O)OCc2c1cc1n(c2=O)Cc2cc3c(CN(C)C)c(O)ccc3nc2-1 + NC1CC1c1ccc(-c2cccc(O)c2)cc1 ?
label 0

###

Test system: K24384-001-R-PDC complex spheroid viability
Test: Anticancer human tumor K24384-001-R-PDC cell line growth inhibition;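 further: spheroids exposed to agents for seven days before luminescence viability reading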;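 on viability, T/C: 100% = DMSO vehicle control viability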
Conditions: second compound 3.16 µM; first compound 0.0316 µM; stronger effect = lower value
Friendly reminder: viability, T/C below 60% is 1, at or above is -1.

Identify whether the compound O=C(c1cc(Cc2n[nH]c(=O)c3ccccc23)ccc1F)N1CCN(C(=O)C2CC2)CC1 + NC1CCC(NC2CC2c2ccccc2)CC1 records viability, T/C below 60%.
-1

And COc1ccc([C@@H](O)c2cc(-c3ncnc4cc(N5CCOCC5)ccc34)c(F)cc2Cl)nn1 + NC1CC1c1ccc(-c2cccc(O)c2)cc1 ?
-1

And CC1COCCN1c1cc(-c2ccnn2C)c2ccnc(-c3ccn[nH]3)c2n1 (stereo not drawn) + NC1CC1c1ccc(-c2cccc(O)c2)cc1 ?
1

And CC(C)CC(NC(=O)C(Cc1ccccc1)NC(=O)c1cnccn1)B(O)O (stereo not drawn) + NC1CCC(NC2CC2c2ccccc2)CC1 ?
1

And CC(C)c1c(-c2ccccc2)nc2c(C#N)c[nH]n2c1=O + NC1CCC(NC2CC2c2ccccc2)CC1 ?
-1

And CC[C@@]1(O)C(=O)OCc2c1cc1n(c2=O)Cc2cc3c(CN(C)C)c(O)ccc3nc2-1 + NC1CCC(NC2CC2c2ccccc2)CC1 ?
-1

And CC(C)CC(NC(=O)C(Cc1ccccc1)NC(=O)c1cnccn1)B(O)O (stereo not drawn) + NC1CC1c1ccc(-c2cccc(O)c2)cc1 ?
1

And O=C(C=Cn1cnc(-c2cc(C(F)(F)F)cc(C(F)(F)F)c2)n1)NNc1cnccn1 + NC1CC1c1ccc(-c2cccc(O)c2)cc1 ?
1

And CC1COCCN1c1cc(C2(S(C)(=N)=O)CC2)nc(-c2ccnc3[nH]ccc23)n1 (stereo not drawn) + NC1CC1c1ccc(-c2cccc(O)c2)cc1 ?
-1

And Cn1ncnc1C1c2n[nH]c(=O)c3cc(F)cc(c23)NC1c1ccc(F)cc1 (stereo not drawn) + NC1CC1c1ccc(-c2cccc(O)c2)cc1 ?
-1

And CC1(C)CCC(CN2CCN(c3ccc(C(=O)NS(=O)(=O)c4ccc(NCC5CCOCC5)c([N+](=O)[O-])c4)c(Oc4cnc5[nH]ccc5c4)c3)CC2)=C(c2ccc(Cl)cc2)C1 + NC1CCC(NC2CC2c2ccccc2)CC1 ?
-1

And CC1(C)CCC(CN2CCN(c3ccc(C(=O)NS(=O)(=O)c4ccc(NCC5CCOCC5)c([N+](=O)[O-])c4)c(Oc4cnc5[nH]ccc5c4)c3)CC2)=C(c2ccc(Cl)cc2)C1 + NC1CC1c1ccc(-c2cccc(O)c2)cc1 ?
-1

And CC(C)c1c(-c2ccccc2)nc2c(C#N)c[nH]n2c1=O + NC1CC1c1ccc(-c2cccc(O)c2)cc1 ?
-1

###

For each entry below, report its viability, T/C value.
System: K24384-001-R-PDC complex spheroid viability
Experiment: Anticancer human tumor K24384-001-R-PDC cell line growth inhibition;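 further: spheroids exposed to agents for seven days before luminescence viability reading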;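 on viability, T/C: 100% = DMSO vehicle control viability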
Conditions: second compound 3.16 µM; first compound 0.3 µM; stronger effect = lower value

Look up viability, T/C for this compound: CCc1c2c(nc3ccc(O)cc13)-c1cc3c(c(=O)n1C2)COC(=O)[C@]3(O)CC + NC1CCC(NC2CC2c2ccccc2)CC1
4.04%

And O=C(C=Cc1cccc(S(=O)(=O)Nc2ccccc2)c1)NO + NC1CCC(NC2CC2c2ccccc2)CC1 ?
42.5%

And NS(=O)(=O)OCC1CC(n2ccc3c(NC4CCc5ccccc54)ncnc32)CC1O (centres undefined) + NC1CC1c1ccc(-c2cccc(O)c2)cc1 ?
55.4%

And Nc1ncn(C2CC(O)C(CO)S2)c(=O)n1 (centres undefined) + NC1CCC(NC2CC2c2ccccc2)CC1 ?
48.5%

###

System: K24384-001-R-PDC complex spheroid viability
Experiment: Anticancer human tumor K24384-001-R-PDC cell line growth inhibition; active = viability on the fitted dose curve at most 10% of control; inactive = the rest;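 further: spheroids exposed to agents for seven days before luminescence viability reading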
Details: second compound 3.16 µM; first compound 0.3 µM
Your reply should match one of these outcome classes. Yes (active), No (inactive)

# fetch the recorded call for CCc1c2c(nc3ccc(O)cc13)-c1cc3c(c(=O)n1C2)COC(=O)[C@]3(O)CC + NC1CC1c1ccc(-c2cccc(O)c2)cc1 here
Yes

And Nc1ccccc1NC(=O)c1ccc(CNC(=O)OCc2cccnc2)cc1 + NC1CC1c1ccc(-c2cccc(O)c2)cc1 ?
No

And Nc1ccccc1NC(=O)c1ccc(CNC(=O)OCc2cccnc2)cc1 + NC1CCC(NC2CC2c2ccccc2)CC1 ?
No

And COc1cc(C2c3cc4c(cc3C(OC3OC5COC(C)OC5C(O)C3O)C3COC(=O)C23)OCO4)cc(OC)c1O (centres undefined) + NC1CC1c1ccc(-c2cccc(O)c2)cc1 ?
No
